Ref: paper PMC7723751

- Experimental system: UniProt:O00519
- Sequence (O00519 1-579): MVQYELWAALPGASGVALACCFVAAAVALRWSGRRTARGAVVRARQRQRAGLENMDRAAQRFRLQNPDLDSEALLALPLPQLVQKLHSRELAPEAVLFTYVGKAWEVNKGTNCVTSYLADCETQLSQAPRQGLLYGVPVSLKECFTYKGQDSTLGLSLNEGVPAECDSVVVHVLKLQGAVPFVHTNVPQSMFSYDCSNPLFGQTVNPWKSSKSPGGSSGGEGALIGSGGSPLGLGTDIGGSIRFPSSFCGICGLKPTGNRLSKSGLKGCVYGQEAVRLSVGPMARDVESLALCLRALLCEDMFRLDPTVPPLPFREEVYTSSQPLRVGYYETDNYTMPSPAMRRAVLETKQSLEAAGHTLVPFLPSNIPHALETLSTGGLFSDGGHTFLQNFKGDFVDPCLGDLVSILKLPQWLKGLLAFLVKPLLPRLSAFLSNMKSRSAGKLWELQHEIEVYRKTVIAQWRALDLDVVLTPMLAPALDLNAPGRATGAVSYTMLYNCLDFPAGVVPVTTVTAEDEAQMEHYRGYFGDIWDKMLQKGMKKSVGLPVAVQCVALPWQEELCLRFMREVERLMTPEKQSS
Quantity measured: IC50 (nM)
Give the value in nM but do not write nM after it.

Task: Record request: IC50 value, item "O=C(Nc1ccc(-c2nc3ccccc3s2)cc1)C1CCN(S(=O)(=O)c2ccc(Br)cc2Br)CC1"
Result: 10

Task: Record request: IC50 value, item "O=C(Nc1ccc(-c2nc3ccccc3s2)cc1)C1CCN(S(=O)(=O)c2ccccc2)CC1"
Result: 8.6

Task: Record request: IC50 value, item "O=C(Nc1ccc(-c2nc3ccccc3s2)cc1)C1CCN(S(=O)(=O)c2c(Cl)cc(Cl)cc2Cl)CC1"
Result: 270

Task: Record request: IC50 value, item "COc1ccccc1S(=O)(=O)N1CCC(C(=O)Nc2ccc(-c3nc4ccccc4s3)cc2)CC1"
Result: 80

Task: Record request: IC50 value, item "O=C(Nc1ccc(-c2nc3ccccc3s2)cc1)C1CCN(S(=O)(=O)c2ccc(F)cc2)CC1"
Result: 77

Task: Record request: IC50 value, item "O=C(Nc1ccc(-c2nc3ccccc3s2)cc1)C1CCN(S(=O)(=O)c2ccccc2F)CC1"
Result: 1.3

Task: Record request: IC50 value, item "O=C(Nc1ccc(-c2nc3ccccc3s2)cc1)C1CCN(S(=O)(=O)c2cccc(Cl)c2)CC1"
Result: 7.2

Task: Record request: IC50 value, item "COc1ccc(S(=O)(=O)N2CCC(C(=O)Nc3ccc(-c4nc5ccccc5s4)cc3)CC2)c(OC)c1"
Result: 36.2

Task: Record request: IC50 value, item "Cc1cccc(S(=O)(=O)N2CCC(C(=O)Nc3ccc(-c4nc5ccccc5s4)cc3)CC2)c1"
Result: 7

* * *

Target protein (sequence): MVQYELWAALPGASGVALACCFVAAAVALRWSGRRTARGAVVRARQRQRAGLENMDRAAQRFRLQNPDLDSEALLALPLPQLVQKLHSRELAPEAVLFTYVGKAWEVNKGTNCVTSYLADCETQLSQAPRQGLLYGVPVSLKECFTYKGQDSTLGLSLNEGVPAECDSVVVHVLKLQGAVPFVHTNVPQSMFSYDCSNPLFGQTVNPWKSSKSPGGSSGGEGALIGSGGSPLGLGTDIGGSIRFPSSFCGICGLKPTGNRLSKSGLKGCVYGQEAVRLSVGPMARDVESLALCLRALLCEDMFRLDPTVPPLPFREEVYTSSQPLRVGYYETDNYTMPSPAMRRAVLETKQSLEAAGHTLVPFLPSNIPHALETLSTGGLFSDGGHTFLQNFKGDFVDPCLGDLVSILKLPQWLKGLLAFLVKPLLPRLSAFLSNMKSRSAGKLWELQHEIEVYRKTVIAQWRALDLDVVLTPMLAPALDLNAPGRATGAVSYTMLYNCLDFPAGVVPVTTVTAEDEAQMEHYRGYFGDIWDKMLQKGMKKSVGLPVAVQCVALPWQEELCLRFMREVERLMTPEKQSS
Quantity measured: IC50 (nM)
Give the value in nM but do not write nM after it.

Task: Record request: IC50 value, item Cc1ccccc1S(=O)(=O)N1CCC(C(=O)Nc2ccc(-c3nc4ccccc4s3)cc2)CC1 [Compound 4-7]
Result: 9.6

Task: Record request: IC50 value, item O=C(Nc1ccc(-c2nc3ccccc3s2)cc1)C1CCN(S(=O)(=O)c2ccc(Br)cc2)CC1 [Compound 4-16]
Result: 185

Task: Record request: IC50 value, item O=C(Nc1ccc(-c2nc3ccccc3s2)cc1)C1CCN(S(=O)(=O)c2ccc(F)cc2F)CC1 [Compound 4-19]
Result: 11.4

Task: Record request: IC50 value, item Cc1ccc(S(=O)(=O)N2CCC(C(=O)Nc3ccc(-c4nc5ccccc5s4)cc3)CC2)c(C)c1 [Compound 4-22]
Result: 5.5

Task: Record request: IC50 value, item O=C(Nc1ccc(-c2nc3ccccc3s2)cc1)C1CCN(S(=O)(=O)c2cccs2)CC1 [Compound 4-1]
Result: 16

Task: Record request: IC50 value, item CC(C)c1cc(C(C)C)c(S(=O)(=O)N2CCC(C(=O)Nc3ccc(-c4nc5ccccc5s4)cc3)CC2)c(C(C)C)c1 [Compound 4-29]
Result: 2230

Task: Record request: IC50 value, item Cc1cc(C)c(S(=O)(=O)N2CCC(C(=O)Nc3ccc(-c4nc5ccccc5s4)cc3)CC2)c(C)c1 [Compound 4-28]
Result: 84

Task: Record request: IC50 value, item COc1cccc(S(=O)(=O)N2CCC(C(=O)Nc3ccc(-c4nc5ccccc5s4)cc3)CC2)c1 [Compound 4-13]
Result: 14.6

Task: Record request: IC50 value, item O=C(Nc1ccc(-c2nc3ccccc3s2)cc1)C1CCN(S(=O)(=O)c2ccc(Cl)cc2)CC1 [Compound 4-15]
Result: 260

Task: Record request: IC50 value, item O=C(Nc1ccc(-c2nc3ccccc3s2)cc1)C1CCN(S(=O)(=O)c2cccc(Br)c2)CC1 [Compound 4-11]
Result: 51.6

Task: Record request: IC50 value, item O=C(Nc1ccc(-c2nc3ccccc3s2)cc1)C1CCN(S(=O)(=O)c2c(F)cc(F)cc2F)CC1 [Compound 4-26]
Result: 250

Task: Record request: IC50 value, item O=C(Nc1ccc(-c2nc3ccccc3s2)cc1)C1CCN(S(=O)(=O)c2cc(Br)c(Cl)s2)CC1 [Compound 4-2]
Result: 2700

Task: Record request: IC50 value, item O=C(Nc1ccc(-c2nc3ccccc3s2)cc1)C1CCN(S(=O)(=O)c2cccc(F)c2)CC1 [Compound 4-9]
Result: 13.4

Task: Record request: IC50 value, item O=C(Nc1ccc(-c2nc3ccccc3s2)cc1)C1CCN(S(=O)(=O)c2ccccc2Br)CC1 [Compound 4-6]
Result: 6.1
